The entries below are paired with their reported cell viability.
System: NOMO1
assay name: cell viability relative to DMSO control; higher = less cytotoxic
measurement parameters: HPLM + 10% dialyzed FBS; 48 h; 0.0211 µM
Number only, in %; omit the unit.

COc1cc(O)c2c(c1)C1OC1C[C@H](O)[C@H](O)C(=O)/C=C\C[C@H](C)OC2=O (stereo partly drawn) = 111
CC1(C)OC2CC3C4CC(F)C/5=C/C(=O)/C=C\C5(C)C4C(O)CC3(C)[C@@]2(O1)C(=O)CO (stereo partly drawn) = 119
COc1cc2c(Oc3ccc(NC(=O)C4(C(=O)Nc5ccc(F)cc5)CC4)cc3F)ccnc2cc1OCCCN1CCOCC1 = 92
CC(C)(C)C(=O)OCOP(=O)(COCCn1cnc2c(N)ncnc21)OCOC(=O)C(C)(C)C = 108
C[C@@H]1COCCN1C\2=C\C(=O)N\3CC[C@H](N(CC4=CN=CC(=C4)Cl)C3=N2)C(F)(F)F = 105
CC(=O)N1CCN(c2ccc(OCc3nn(C)c(C)c3-c3cccc4c(CCCOc5cccc6ccccc56)c(C(=O)O)n(Cc5cccnc5)c34)cc2)CC1 = 117
O=C(O)c1ccc(-n2nc(-c3ccccc3O)nc2-c2ccccc2O)cc1 = 90.6

// below: cell viability requested for another compound
Query string: Fill in the blank: the reported cell viability of COc1cc2c(Nc3ccc(Cl)c(Cl)c3F)ncnc2cc1OC[C@@H]1C[C@@H]2CN(C)C[C@@H]2C1 is ____.
Result string: 119

---

The entries below are paired with their reported cell viability.
System: SEM cells
assay name: cell viability relative to DMSO control; higher = less cytotoxic
measurement parameters: RPMI 5 mM glucose + 10% FBS; 48 h; 0.0211 µM
Number only, in %; omit the unit.

Observe how each entry below is paired with its result.
CC(C)n1nc(-c2ccc3oc(N)nc3c2)c2c(N)ncnc21 = 62.4
CC(=O)OCC(=O)[C@@]12\N=C(C)/O[C@@H]1C[C@H]3[C@@H]4CCC/5=C/C(=O)/C=C\[C@]5(C)[C@H]4[C@@H](O)C[C@]23C = 102
CCC(=O)OCC(=O)[C@@]1(OC(=O)CC)[C@@H](C)C[C@H]2[C@@H]3CCC4=CC(=O)C=C[C@]4(C)[C@@]3(F)[C@@H](O)C[C@@]21C = 114
C[S+](=O)([O-])N(Cc1ccco1)CC(O)Cn1c2ccccc2c2ccccc21 (centres undefined) = 119
CCOc1ccc(Nc2nc(-c3c(C)nc4ccccn34)cs2)cc1 = 94.8

// below: cell viability requested for another compound
Query string: Fill in the blank: the reported cell viability of C=CC1=C(C(=O)O)N2C(=O)[C@@H](NC(=O)/C(=N\O)c3csc(N)n3)[C@H]2SC1 is ____.
Result string: 104

---

The entries below are paired with their reported cell viability.
Tested on: SEM cells
assay name: cell viability relative to DMSO control; higher = less cytotoxic
measurement parameters: RPMI 5 mM glucose + 10% dialyzed FBS; 48 h; 0.00702 µM
Number only, in %; omit the unit.

Observe how each entry below is paired with its result.
COc1cc(O)c2c(c1)C1OC1C[C@H](O)[C@H](O)C(=O)/C=C\C[C@H](C)OC2=O (stereo partly specified) = 117
CCC(=O)OCC(=O)[C@@]1(OC(=O)CC)[C@@H](C)C[C@H]2[C@@H]3CCC4=CC(=O)C=C[C@]4(C)[C@@]3(F)[C@@H](O)C[C@@]21C = 126
CNC1[C@@H](O)C(O[C@@H]2C(O)C(O[C@H]3O[C@H]([C@@H](C)NC)CC[C@H]3N)[C@@H](N)C[C@H]2N)OC[C@]1(C)O (stereo partly specified) = 98.4
C[C@@]12O[C@@H](C[C@]1(O)CO)n1c3ccccc3c3c4c(c5c6ccccc6n2c5c31)CNC4=O = 96.4
CC(C)Oc1cc(Nc2nc(N[C@@H](C)c3ccc(F)cn3)ncc2Cl)n[nH]1 = 100

Query string: Fill in the blank: the reported cell viability of CC1(C)CCC(=C(CN2CCN(CC2)C3=CC=C(C=C3)C(=O)N[S+]([O-])(=O)C4=CC(=C(N[C@H](CCN5CCOCC5)CSC6=CC=CC=C6)C=C4)[S+]([O-])(=O)C(F)(F)F)\C1)/C7=CC=C(Cl)C=C7 is ____.
Result string: 100

Numbers sourced from the supplement of paper PMC11451515.
